Test: in vivo
Details: rat, in vivo
propertyMeasured: Vd (L/kg)
Only the number, expressed in L/kg, is required.

Enquiry: Would you kindly share the measured Vd for CC(=O)N[C@@H](Cc1ccccc1)C(=O)N[C@H]1CCCNC(=O)[C@H](CCCNC(=N)N)NC(=O)[C@H](Cc2c[nH]c3ccccc23)NC(=O)[C@@H](CC2CCCCC2)NC(=O)[C@@H]2CCCN2C1=O [3D53, Ac-Phe-[Orn-Pro-D-Cha-Trp-Arg]] ?
Return: 4.1

----------
Assay: Pharmacokinetics and oral bioavailability in rats (LCMS of plasma)
Conditions: male, Wistar, rat, plasma
half-life values by entry
# output: bare number, implied unit h

- COc1ccc2c(c1)C(C(=O)N(Cc1ccc(N(C)C)cc1)c1ccc(C(C)C)cc1)CCC2 (centres unmarked): 2.07

Enquiry: What half-life value was documented for this compound, CCc1cccc(CC)c1-c1cc(OC(C)C)c2c(n1)CCCC2Nc1ccccc1CCO (centres unmarked) ?
Return: 0.72
